# Target System: T1, hIL-7R (Example 11) (human, UniProt P16871 21-239)
# T1 construct: Called full length hIL-7R for the mRNA display and hIL-7R for the Biacore runs; also called full length hIL-7R; human IL-7R
# T1 chain: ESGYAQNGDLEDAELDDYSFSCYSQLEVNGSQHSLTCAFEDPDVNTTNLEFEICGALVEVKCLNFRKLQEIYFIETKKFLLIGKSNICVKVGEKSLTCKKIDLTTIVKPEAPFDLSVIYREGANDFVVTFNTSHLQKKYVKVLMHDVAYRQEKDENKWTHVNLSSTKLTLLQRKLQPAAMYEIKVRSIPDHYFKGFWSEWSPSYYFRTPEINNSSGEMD
# Test Protocol: NGS enrichment ratio of the mutation in the scFv library selected at 0.2 nM hIL-7R
Measured Parameter: 0.2 nM NGS

[
  {
    "Binder": "18B1 LC S30A (antibody, human IgG1, kappa, V domains shown) VH: EVQLVESGGGLVQPGRSLRLSCAASGFTFDDHAMHWVRQAPGKGLEWVSGISWNSRGIGYADSVKGRFTIFRDNAKNSLYLQMNSLRAEDTALYYCAKDEYSRGYYVLDVWGQGTTVTVSS VL: AIQLTQSPSSLSASVGDRVTITCRASQGIASALAWYQQKPGKAPKLLIYDASSLESGVPSRFSGSGSGTDFTLTISSLQPEDFATYYCQQFNSYPLWITFGQGTRLEIKR",
    "0.2 nM NGS": 0.7
  },
  {
    "Binder": "18B1 LC Q90A (antibody, human IgG1, kappa, V domains shown) VH: EVQLVESGGGLVQPGRSLRLSCAASGFTFDDHAMHWVRQAPGKGLEWVSGISWNSRGIGYADSVKGRFTIFRDNAKNSLYLQMNSLRAEDTALYYCAKDEYSRGYYVLDVWGQGTTVTVSS VL: AIQLTQSPSSLSASVGDRVTITCRASQGISSALAWYQQKPGKAPKLLIYDASSLESGVPSRFSGSGSGTDFTLTISSLQPEDFATYYCQAFNSYPLWITFGQGTRLEIKR",
    "0.2 nM NGS": 1.63
  },
  {
    "Binder": "18B1 LC Q27A (antibody, human IgG1, kappa, V domains shown) VH: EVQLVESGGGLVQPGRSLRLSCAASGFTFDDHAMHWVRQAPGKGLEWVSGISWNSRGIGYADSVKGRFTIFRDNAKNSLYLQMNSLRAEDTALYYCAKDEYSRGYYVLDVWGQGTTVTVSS VL: AIQLTQSPSSLSASVGDRVTITCRASAGISSALAWYQQKPGKAPKLLIYDASSLESGVPSRFSGSGSGTDFTLTISSLQPEDFATYYCQQFNSYPLWITFGQGTRLEIKR",
    "0.2 nM NGS": 1.27
  }
]

# input Query (binder): 18B1 LC I29A (antibody, human IgG1, kappa, V domains shown) VH: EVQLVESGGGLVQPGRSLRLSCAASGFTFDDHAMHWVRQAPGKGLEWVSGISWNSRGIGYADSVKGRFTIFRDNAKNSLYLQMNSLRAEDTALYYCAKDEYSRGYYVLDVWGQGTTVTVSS VL: AIQLTQSPSSLSASVGDRVTITCRASQGASSALAWYQQKPGKAPKLLIYDASSLESGVPSRFSGSGSGTDFTLTISSLQPEDFATYYCQQFNSYPLWITFGQGTRLEIKR ; field requested: 0.2 nM NGS
# output 1.44
